Measured Inhibition of VEGF-induced proliferation of HUVEC cells (IC50, nM) accompanies every entry in the list below.
Target: full-length human KDR on cells (human, UniProt P35968 20-1356)
Sequence (P35968 20-1356): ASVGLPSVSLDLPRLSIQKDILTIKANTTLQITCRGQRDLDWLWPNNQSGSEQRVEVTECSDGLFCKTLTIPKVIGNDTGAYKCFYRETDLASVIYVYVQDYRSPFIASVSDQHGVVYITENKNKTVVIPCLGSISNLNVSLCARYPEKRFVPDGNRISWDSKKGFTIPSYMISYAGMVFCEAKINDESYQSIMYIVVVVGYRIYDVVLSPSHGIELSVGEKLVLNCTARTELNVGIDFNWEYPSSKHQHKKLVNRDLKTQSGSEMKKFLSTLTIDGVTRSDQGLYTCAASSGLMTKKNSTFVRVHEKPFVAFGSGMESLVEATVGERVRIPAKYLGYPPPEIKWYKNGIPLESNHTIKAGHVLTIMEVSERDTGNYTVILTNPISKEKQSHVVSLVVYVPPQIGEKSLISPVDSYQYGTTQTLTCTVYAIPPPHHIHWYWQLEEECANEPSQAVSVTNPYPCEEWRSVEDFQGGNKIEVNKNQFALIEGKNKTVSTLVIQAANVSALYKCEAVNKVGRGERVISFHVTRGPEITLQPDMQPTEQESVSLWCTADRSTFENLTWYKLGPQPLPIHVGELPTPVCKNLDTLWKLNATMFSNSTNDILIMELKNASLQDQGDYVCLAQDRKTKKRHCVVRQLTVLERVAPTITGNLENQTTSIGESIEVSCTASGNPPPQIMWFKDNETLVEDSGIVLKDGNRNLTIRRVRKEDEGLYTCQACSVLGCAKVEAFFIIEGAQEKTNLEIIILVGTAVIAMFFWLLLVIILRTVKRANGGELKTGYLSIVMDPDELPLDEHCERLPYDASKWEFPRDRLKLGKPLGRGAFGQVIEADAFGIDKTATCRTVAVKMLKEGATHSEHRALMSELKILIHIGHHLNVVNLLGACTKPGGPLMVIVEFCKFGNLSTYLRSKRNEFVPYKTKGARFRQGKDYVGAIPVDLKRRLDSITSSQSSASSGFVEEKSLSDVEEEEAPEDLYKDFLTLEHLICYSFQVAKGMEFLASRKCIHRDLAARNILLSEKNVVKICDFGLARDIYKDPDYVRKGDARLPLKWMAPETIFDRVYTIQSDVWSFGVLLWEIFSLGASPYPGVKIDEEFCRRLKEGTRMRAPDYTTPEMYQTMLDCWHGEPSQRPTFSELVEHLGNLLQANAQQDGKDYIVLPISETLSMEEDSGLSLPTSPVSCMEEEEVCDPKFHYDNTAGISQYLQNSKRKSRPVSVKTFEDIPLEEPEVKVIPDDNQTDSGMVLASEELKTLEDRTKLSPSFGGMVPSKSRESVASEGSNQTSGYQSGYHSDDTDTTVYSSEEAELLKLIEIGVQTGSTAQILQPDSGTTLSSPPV
Assay: cell-based or functional assay
Entry rule: numbers only, all in nM.

Known results for binders:
| Binder | Endpoint Result |
| --- | --- |
| E29 (designed binder, Del 1-8 10Fn3 clone; Flag-tagged in vitro translated protein in the radioactive assay, His6-tagged E. coli protein in BIAcore and cell assays; tags left out) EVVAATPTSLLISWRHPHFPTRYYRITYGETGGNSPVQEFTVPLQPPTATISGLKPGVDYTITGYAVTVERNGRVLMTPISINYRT | 8.4 |
| E19 (designed binder, Del 1-8 10Fn3 clone; Flag-tagged in vitro translated protein in the radioactive assay, His6-tagged E. coli protein in BIAcore and cell assays; tags left out) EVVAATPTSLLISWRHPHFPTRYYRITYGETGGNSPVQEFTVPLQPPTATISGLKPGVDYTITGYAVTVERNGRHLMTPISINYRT | 11.8 |

Prompt: Which Inhibition of VEGF-induced proliferation of HUVEC cells (IC50, nM) is reported for this binder? E18 (designed binder, Del 1-8 10Fn3 clone; Flag-tagged in vitro translated protein in the radioactive assay, His6-tagged E. coli protein in BIAcore and cell assays; tags left out) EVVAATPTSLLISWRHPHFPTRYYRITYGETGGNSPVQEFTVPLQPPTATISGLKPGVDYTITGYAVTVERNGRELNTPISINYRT
Completion: 12.8
